These measurements were taken from ChEMBL document CHEMBL3797125.

assay: Protein binding in mouse brain; assay type: ADME, tissue-based; settings: read-out: PB (converted)
measurement_label: fraction unbound

>>> value_measured("N#C[C@@H]1C[C@H]1c1c(C(F)(F)F)sc2nc(Cn3nc(C(F)(F)F)cc3Cl)cc(=O)n12")
0.014

* * *

// reported %max for each item listed
target: Glutamate NMDA receptor; GRIN1/GRIN2A (Homo sapiens, UniProt Q05586+Q12879); test: Positive allosteric modulation of GluN1/GluN2A NMDAR (unknown origin) expressed in Dox-inducible cells at 125 uM measured every 5 mins by BD calcium indicator dye based-fluorescence analysis in presence of glutamate/glycine; type: cell-based
measurement_label: %max

>>> value_measured("CCN(Cc1cc(=O)n2c(CO)c(C)sc2n1)c1ccc(F)cc1")
"153%"
>>> value_measured("Cc1sc2nc(Cn3nc(C(F)(F)F)cc3Cl)cc(=O)n2c1[C@@H]1C[C@H]1CO")
"147%"
>>> value_measured("CCNC(=O)c1c(C)sc2nc(Cc3cc(C#N)ccc3C3CC3)cc(=O)n12")
"102%"
>>> value_measured("CCNC(=O)c1c(C)sc2nc(CN(CC)c3ccc(F)cc3)cc(=O)n12")
"184%"
